# ASSAY: Binding affinity bovine carbonic anhydrase
# Set-up: species or system Bos taurus
PROPERTY_MEASURED: Ki (µM)
Return type: number; implicit unit µM.

Just so you know, measured Ki for CCN1CCCC1CNC(=O)c1cc(S(N)(=O)=O)ccc1OC (stereo unspecified) [SULPIRIDE] came out at 48

---

# ASSAY: Binding affinity bovine carbonic anhydrase by surface plasma resonance method
# Design: species or system Bos taurus
PROPERTY_MEASURED: pKd
pKd (log units): -log10 of the concentration in mol/L.

Form: compound = NS(=O)(=O)c1ccc(F)cc1 ; pKd = 6.00

---

# ASSAY: Binding affinity to HSP90 ATPase domain by TR-FRET assay
PROPERTY_MEASURED: pKi
Here pKi is given on a logarithmic scale as minus log10 of the concentration in mol/L.

SMI | PROPERTY_MEASURED | VALUE_OBSERVED
COc1ccc(Cl)cc1-c1cc(C)nc(N)n1 | pKi | 4.96
Cc1cc(-c2ccccc2)nc(N)n1 | pKi | 4.85

Kindly review the next molecule as well.
Cc1cc(-c2cccc3ccccc23)nc(N)n1 yielded pKi of 5.30

Where do the numbers come from? From ChEMBL document CHEMBL2157881.
